TARGET_OR_TEST_SYSTEM: JCV VP1 mutant L55F (John Cunningham virus (JCV), UniProt P03089 1-354)
TEST_PROTOCOL: cell-based or functional assay
MEASURED_METRIC: Neutralization of JCV L55F: EC50 [pM] (pM)
Report the figure in pM without appending any unit label.

// below: answered binders
{"BINDER": "1E12 (antibody, V domains shown) VH: QVQLVESGGGLVKPGGSLRLSCTASGFTFSDHYMSWIRQAPGKGLEWVSYISTGGRTIYYADSVKGRFTISRDNAKNSLYLQMNSLRAEDTAVYYCASDYYDNVGWDYWGQGTLVTVSS VL: DVVLTQSPLSLPVTLGQPASISCRSSQSLIYSDGNTYLNWFQQRPGQSPRRLIYKVSDRDSGVPDRFSGSGSGTDFTLKISRVEAEDVGVYYCMQGTHWPRTFGQGTKVEIK", "MEASUREMENT_UNITS": "pM", "NUMERIC_READOUT": 56.7}
{"BINDER": "1E8 (antibody, V domains shown) VH: QVQLVESGGGLVKPGGSLRLSCAASGFTFSDHYMSWIRQAPGKGLEWVSYISTSGSTIYYADSVKGRFTISRDNAKNSLYLQMNSLRAEDTAVYYCASDYYDNSGWNYWGQGTLVTVSS VL: DVVMTQSPLSLPVTLGQPASISCRSSQSLVYSDGNTYLNWFQQRPGQSPRRLIYKVSDRDSGVPDRFSGSGSGTDFTLRISRVEAEDVGVYYCMQGSHWPRTFGQGTKVEIK", "MEASUREMENT_UNITS": "pM", "NUMERIC_READOUT": 3380}
{"BINDER": "1A3 (antibody, V domains shown) VH: QVQLVESGGGLVKPGGSLRLSCAASEITFSDYYMSWIRQAPGKGLEWISYISTSGRTIYFADSVKGRFTISRDNAKNSLYLQMNSLRADDTAVYYCASDFYDNSGWEYWGQGTLVTVSS VL: DVVMTQSPLSLSVTLGQPASISCRSSQSLVYSDGNTYLNWFQQRPGQSPRRLIYKVSDRDSGVPDRFSGSGSGTDFTLKISRAEAEDVGVYYCMQGTHWPRTFGQGTKVEIK", "MEASUREMENT_UNITS": "pM", "NUMERIC_READOUT": 6600}

Turning to the following binder.
Input 2A11 (antibody, V domains shown) VH: QVQLVESGGGLVKPGGSLRLSCAASGFTFSDHYMSWIRQAPGKGLEWVSYISTSGRTIYYVDSVKGRFTISRDNAKNSLYLQMNSLRAEDMAVYYCASDYYDNVGWNYWGQGALVTVSS VL: DVVLTQSPLSLPVTLGQPASISCRSSQSLVYSDGNTYLNWFQQRPGQSPRRLIYKVSDRDFGVPDRFSGSGSGTDFTLKISRVEAEDVGIYYCMQGTHWPRTFGQGTKVEIK . Output Neutralization of JCV L55F: EC50 [pM]: 45.5
